Test: Antiproliferative activity on HepG2 cell line (MTT assay)
Format: cell-based
Details: HepG2 cells; at 1280 µg/mL, value in parenthesis; read-out: HepG2 cell viability at highest concentration tested
Protocol: Effect of compounds on mammalian cell viability was estimated on the HepG2 cell line ATCC HB-8065. In brief, HepG2 cells were seeded into flat-bottomed 96-well plates at a concentration of 5000 cells per well. […] Absorbance of MTT was measured using the spectrophotometer TECAN Infinite M1000 at 540 nm. The relative viability was calculated by using the formula: ODtreated cells × 100/ODcontrol cells. The IC50 values are calculated by using the program Graph Pad Prism® 5.0. […]
Examples of compounds with documented viability at 48 h follow.
measurementKind: viability at 48 h (%)

{"columns": ["compound", "measurementKind", "measured"],
 "data": [
  ["NCCCC[C@H](NC(=O)CCN(Cc1ccc(F)cc1)C(=O)[C@H](CCCCN)NC(=O)CCOCCOCCOCCOCCNC(=O)CCN(Cc1ccc(F)cc1)C(=O)[C@H](CCCCN)NC(=O)CCN(Cc1ccc(F)cc1)C(=O)[C@H](CCCCN)NC(=O)CCOCCOCCOCCOCCNC(=O)CCN(Cc1ccc(F)cc1)C(=O)[C@H](CCCCN)NC(=O)CCN(Cc1ccc(F)cc1)C(=O)[C@@H](N)CCCCN)C(=O)N(CCC(N)=O)Cc1ccc(F)cc1 [Compound 18, H-[X]2-sPEG4-[X]2-sPEG4-[X]2-NH2]", "viability at 48 h", 41],
  ["NCCCC[C@H](NC(=O)CCN(Cc1ccc(F)cc1)C(=O)[C@H](CCCCN)NC(=O)CCN(Cc1ccc(F)cc1)C(=O)[C@H](CCCCN)NC(=O)CCOCCOCCOCCOCCNC(=O)CCN(Cc1ccc(F)cc1)C(=O)[C@H](CCCCN)NC(=O)CCN(Cc1ccc(F)cc1)C(=O)[C@H](CCCCN)NC(=O)CCN(Cc1ccc(F)cc1)C(=O)[C@@H](N)CCCCN)C(=O)N(CCC(N)=O)Cc1ccc(F)cc1 [Compound 9, H-[X]3-sPEG4-[X]3-NH2]", "viability at 48 h", 9],
  ["NCCCC[C@H](NC(=O)CCN(Cc1ccc(F)cc1)C(=O)[C@H](CCCCN)NC(=O)CCN(Cc1ccc(F)cc1)C(=O)[C@H](CCCCN)NC(=O)CCN(Cc1ccc(F)cc1)C(=O)[C@H](CCCCN)NC(=O)CCN(Cc1ccc(F)cc1)C(=O)[C@H](CCCCN)NC(=O)CCN(Cc1ccc(F)cc1)C(=O)[C@@H](N)CCCCN)C(=O)N(CCC(N)=O)Cc1ccc(F)cc1 [Compound 1, H-[Lys-βNPhe(4-F)]6-NH2]", "viability at 48 h", 0],
  ["NCCCC[C@H](NC(=O)CCN(Cc1ccc(F)cc1)C(=O)[C@H](CCCCN)NC(=O)CCN(Cc1ccc(F)cc1)C(=O)[C@H](CCCCN)NC(=O)COCCOCCOCCNC(=O)CCN(Cc1ccc(F)cc1)C(=O)[C@H](CCCCN)NC(=O)CCN(Cc1ccc(F)cc1)C(=O)[C@H](CCCCN)NC(=O)CCN(Cc1ccc(F)cc1)C(=O)[C@@H](N)CCCCN)C(=O)N(CCC(N)=O)Cc1ccc(F)cc1 [Compound 8, H-[X]3-sPEG3-[X]3-NH2]", "viability at 48 h", 10],
  ["NCCCC[C@H](NC(=O)CCN(Cc1ccc(F)cc1)C(=O)[C@H](CCCCN)NC(=O)COCCNC(=O)CCN(Cc1ccc(F)cc1)C(=O)[C@H](CCCCN)NC(=O)CCN(Cc1ccc(F)cc1)C(=O)[C@H](CCCCN)NC(=O)COCCNC(=O)CCN(Cc1ccc(F)cc1)C(=O)[C@H](CCCCN)NC(=O)CCN(Cc1ccc(F)cc1)C(=O)[C@@H](N)CCCCN)C(=O)N(CCC(N)=O)Cc1ccc(F)cc1 [Compound 15, H-[X]2-sPEG1-[X]2-sPEG1-[X]2-NH2]", "viability at 48 h", 26],
  ["NCCCC[C@H](NC(=O)CCN(Cc1ccc(F)cc1)C(=O)[C@H](CCCCN)NC(=O)CCN(Cc1ccc(F)cc1)C(=O)[C@H](CCCCN)NC(=O)COCCOCCN)C(=O)N(CCC(=O)NCCOCCOCC(=O)N[C@@H](CCCCN)C(=O)N(CCC(=O)N[C@@H](CCCCN)C(=O)N(CCC(=O)N[C@@H](CCCCN)C(=O)N(CCC(=O)NCCOCCOCC(N)=O)Cc1ccc(F)cc1)Cc1ccc(F)cc1)Cc1ccc(F)cc1)Cc1ccc(F)cc1 [Compound 12, H-sPEG2-[X]3-sPEG2-[X]3-sPEG2-NH2]", "viability at 48 h", 34]
]}
